Where do the numbers come from? From the supplement of paper PMC10307832.

System: NCI-H1563
test.protocol: relative viability (nuclei count vs DMSO), 5 days (fraction); higher = more cells survive
test.context: first compound 0.001 µM
Lab note: anything with relative viability below 0.7 is marked Condition met; values at 0.7 or higher are marked Condition not met.

# compound, assigned.category
records = [
    ("Cc1cn(-c2cc(NC(=O)c3ccc(C)c(Nc4nccc(-c5cccnc5)n4)c3)cc(C(F)(F)F)c2)cn1 [Nilotinib] + CS(=O)(=O)N1CCN(Cc2cc3nc(-c4cccc5[nH]ncc45)nc(N4CCOCC4)c3s2)CC1 [Pictilisib] (partner 1 µM)", "Condition met"),
    ("Cc1cn(-c2cc(NC(=O)c3ccc(C)c(Nc4nccc(-c5cccnc5)n4)c3)cc(C(F)(F)F)c2)cn1 [Nilotinib] + N=C(N)NC(=N)NCCc1ccccc1 [Phenformin] (partner 250 µM)", "Condition met"),
    ("Cc1cn(-c2cc(NC(=O)c3ccc(C)c(Nc4nccc(-c5cccnc5)n4)c3)cc(C(F)(F)F)c2)cn1 [Nilotinib] + CC(C)C[C@H](NC(=O)[C@H](Cc1ccccc1)NC(=O)c1cnccn1)B(O)O [Bortezomib] (partner 0.002 µM)", "Condition not met"),
    ("Cc1cn(-c2cc(NC(=O)c3ccc(C)c(Nc4nccc(-c5cccnc5)n4)c3)cc(C(F)(F)F)c2)cn1 [Nilotinib] + C[C@]1(O)C[C@@H](c2nc(-c3ccc4ccc(-c5ccccc5)nc4c3)c3c(N)nccn32)C1 [Linsitinib] (partner 1 µM)", "Condition not met"),
]

Switching to the query record.
Prompt line: Consider the compound Cc1cn(-c2cc(NC(=O)c3ccc(C)c(Nc4nccc(-c5cccnc5)n4)c3)cc(C(F)(F)F)c2)cn1 [Nilotinib] + Cc1nc(NC(=O)N2CCC[C@H]2C(N)=O)sc1-c1ccnc(C(C)(C)C(F)(F)F)c1 [Alpelisib] (partner 2 µM) . Is its relative viability strictly less than 0.7?
Response line: Condition not met

====

Test system: NCI-H358
test.protocol: relative viability (nuclei count vs DMSO), 5 days (fraction); higher = more cells survive
test.context: first compound 2 µM
As shown below, each of these compounds has a reported relative viability value.
Simply state the number, no unit and no words.

# compound, relative viability
rows = [
    ("CN1CCN(CCOc2cc(OC3CCOCC3)c3c(Nc4c(Cl)ccc5c4OCO5)ncnc3c2)CC1 [Saracatinib] + COc1cccc2cc(-c3nc([C@H]4CC[C@H](C(=O)O)CC4)n4ncnc(N)c34)[nH]c12 [OSI-027] (partner 0.5 µM)", 0.289),
    ("Cc1csc(=NC2CCCCC2)n1/N=C/c1ccc(O)c(O)c1O [MIM1] + Cc1cc(Nc2cc(N3CCN(C)CC3)nc(Sc3ccc(NC(=O)C4CC4)cc3)n2)n[nH]1 [Tozasertib] (partner 0.1 µM)", 0.129),
    ("Cc1csc(=NC2CCCCC2)n1/N=C/c1ccc(O)c(O)c1O [MIM1] + CC(=O)Nc1cccc(-n2c(=O)n(C3CC3)c(=O)c3c(Nc4ccc(I)cc4F)n(C)c(=O)c(C)c32)c1 [Trametinib] (partner 0.02 µM)", 0.119),
]

Next compound, relative viability to be filled in.
relative viability for CN1CCN(CCOc2cc(OC3CCOCC3)c3c(Nc4c(Cl)ccc5c4OCO5)ncnc3c2)CC1 [Saracatinib] + NC(=O)Nc1cc(-c2cccc(F)c2)sc1C(=O)N[C@H]1CCCNC1 [AZD7762] (partner 0.2 µM) is 0.318
